- ASSAY_SYSTEM: Plasmodium falciparum Hsp90 (expressed in yeast GR reporter strain)
- ASSAY_TEXT: GR-driven beta-gal reporter inhibition, PfHsp90 yeast strain – S. cerevisiae, beta-gal luminescence, dry powder samples, dose response (AID 602160)
Records with an inconclusive call do not appear.
METRIC: AC50

Consider the worked cases shown below.
CHEMICAL_SMILES | ASSAY_SYSTEM | RESULT
Cc1ccc(OCc2n[nH]c(=S)n2C2CCCCC2)cc1 | Plasmodium falciparum Hsp90 (expressed in yeast GR reporter strain) | 20.2 µM
O=C(CSCC(=O)N1CCCCC1)Nc1nc(-c2ccc(Cl)s2)cs1 | Plasmodium falciparum Hsp90 (expressed in yeast GR reporter strain) | 19.6 µM
O=S(=O)(NC1CCCCCC1)c1ccc(Br)s1 | Plasmodium falciparum Hsp90 (expressed in yeast GR reporter strain) | 10.7 µM

Ask | Look at this compound and give its reported AC50. "O=S(=O)(/C=C/c1ccccc1)NC1CCCCCCC1"
Reply | 15.1 µM

This collection of values is drawn from PubChem BioAssay AID602160.
